Taken from patent US10392347B2.

- System: human APJ receptor (Homo sapiens, UniProt P35414)
- Construct: expressed in transfected cells
- Assay Overview: Intracellular cAMP accumulation assay (APJ hcAMP, HTRF)
- Type: cell-based
- Condition Summary: Table 5; HEK293 cells stably expressing human APJ, forskolin-stimulated cAMP; read-out: Human cAMP EC50
Measured EC50 accompanies every entry in the list below.

Answered examples (5):
CCOCc1nc(O)c(C(=O)N2CCC(c3ccccc3F)C2)c(O)c1-c1c(OC)cccc1OC (stereo not drawn) [Example 126] | 0.01 to 10 nM
COc1cccc(-c2c(-c3csc(C)n3)nc(O)c(C(=O)N3CCC(c4ncc(F)cc4F)C3)c2O)c1 (stereo not drawn) [Example 128] | 10 to 100 nM
CCOCc1nc(O)c(C(=O)N2CCC(c3ccccc3F)C2)c(O)c1-c1c(OC)cccc1OC (stereo not drawn) [Example 127] | 0.01 to 10 nM
CCOCc1nc(O)c(C(=O)N2CCC(c3cccc(F)c3)C2)c(O)c1-c1c(OC)cccc1OC (stereo not drawn) [Example 124] | 0.01 to 10 nM
COc1cccc(OC)c1-c1c(C2CCCC2)nc(O)c(C(=O)N2CCC(c3cccc(F)c3)C2)c1O (stereo not drawn) [Example 125] | 10 to 100 nM

Proceed to the following item.
// query Form field: EC50 recorded for COc1cccc(-c2c(-c3csc(C)n3)nc(O)c(C(=O)N3CCC(c4ncc(F)cc4F)C3)c2O)c1 (stereo not drawn) [Example 129] with human APJ receptor (Homo sapiens, UniProt P35414) (enter value)
// result 0.01 to 10 nM

###

- System: human APJ receptor (Homo sapiens)
- Construct: expressed in transfected cells
- Sequence (P35414 1-380): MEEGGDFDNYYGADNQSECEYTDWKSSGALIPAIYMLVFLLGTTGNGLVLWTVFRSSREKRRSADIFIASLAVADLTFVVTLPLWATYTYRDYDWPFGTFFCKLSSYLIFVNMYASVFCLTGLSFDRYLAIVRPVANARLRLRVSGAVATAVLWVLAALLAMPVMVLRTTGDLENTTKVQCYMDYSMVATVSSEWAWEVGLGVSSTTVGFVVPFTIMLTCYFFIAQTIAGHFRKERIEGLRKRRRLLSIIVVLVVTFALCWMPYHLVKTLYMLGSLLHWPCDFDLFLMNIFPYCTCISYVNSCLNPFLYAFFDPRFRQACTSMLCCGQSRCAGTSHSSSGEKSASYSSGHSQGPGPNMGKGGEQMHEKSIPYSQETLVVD
- Assay Overview: Intracellular cAMP accumulation assay (APJ hcAMP, HTRF)
- Format: cell-based
- Condition Summary: Table 1; HEK293 cells stably expressing human APJ, forskolin-stimulated cAMP; read-out: APJ cAMP EC50
pEC50: −log10 of the molar value.
pEC50 overview

// below: answered compounds
CCCCc1nc(O)c(C(=O)N2CCC(O)(c3cccnc3)CC2)c(O)c1-c1c(OC)cccc1OC | 6.52 to 7.00
CCCCc1nc(O)c(C(=O)N2CCN(c3ccc(Cl)cc3)CC2)c(O)c1-c1c(OC)cccc1OC | 7.00 to 8.00
CCCCc1nc(O)c(C(=O)N2CCN(c3nc(-c4ccccc4)ns3)CC2)c(O)c1-c1c(OC)cccc1OC | 7.00 to 8.00

// query Query pEC50 on human APJ receptor (Homo sapiens) for `CCCCc1nc(O)c(C(=O)N2CCN(c3ccccc3OC)CC2)c(O)c1-c1c(OC)cccc1OC`
// result 8.00 to 11.00

// query What value of pEC50 on human APJ receptor (Homo sapiens) does `CCCCc1nc(O)c(C(=O)N2CCN(c3cccc(Cl)c3)CC2)c(O)c1-c1c(OC)cccc1OC` have?
// result 7.00 to 8.00

// query Please tell me: pEC50 of `CCCCc1nc(O)c(C(=O)N2CCC(c3ccccc3)CC2)c(O)c1-c1c(OC)cccc1OC` , system human APJ receptor (Homo sapiens)?
// result 7.00 to 8.00

// query Can you look up pEC50 on human APJ receptor (Homo sapiens) for `CCCCc1nc(O)c(C(=O)N2CCN(c3ccc(NC(=O)OC)cc3)CC2)c(O)c1-c1c(OC)cccc1OC` ?
// result 7.00 to 8.00

###

- System: human APJ receptor (Homo sapiens)
- Construct: expressed in transfected cells
- Assay Overview: Intracellular cAMP accumulation assay (APJ hcAMP, HTRF)
- Assay type: cell-based
- Condition Summary: APJ cAMP EC50 (nM), Table 1; HEK293 cells stably expressing human APJ, forskolin-stimulated cAMP
In this section, each of the molecules is paired with its reported EC50.

CCCCc1[nH]c(=O)c(C(=O)N2CC[C@@H](c3ccccc3)C2)c(O)c1-c1c(OC)cccc1OC | 0.01 to 10 nM
CCCCc1[nH]c(=O)c(C(=O)N(C)CCc2ccc(Cl)cc2)c(O)c1-c1c(OC)cccc1OC | 10 to 100 nM
CCCCc1[nH]c(=O)c(C(=O)N(CCC)Cc2ccccc2)c(O)c1-c1c(OC)cccc1OC | 100 to 300 nM

Read the next record carefully.
// query Value wanted: EC50 (human APJ receptor (Homo sapiens)) of entry `CCCCc1[nH]c(=O)c(C(=O)N2CC[C@H](c3ccccc3)C2)c(O)c1-c1c(OC)cccc1OC`
// result 0.01 to 10 nM

###

Entries and their pEC50
- System: human APJ receptor (Homo sapiens)
- Construct: expressed in transfected cells
- Sequence (P35414 1-380): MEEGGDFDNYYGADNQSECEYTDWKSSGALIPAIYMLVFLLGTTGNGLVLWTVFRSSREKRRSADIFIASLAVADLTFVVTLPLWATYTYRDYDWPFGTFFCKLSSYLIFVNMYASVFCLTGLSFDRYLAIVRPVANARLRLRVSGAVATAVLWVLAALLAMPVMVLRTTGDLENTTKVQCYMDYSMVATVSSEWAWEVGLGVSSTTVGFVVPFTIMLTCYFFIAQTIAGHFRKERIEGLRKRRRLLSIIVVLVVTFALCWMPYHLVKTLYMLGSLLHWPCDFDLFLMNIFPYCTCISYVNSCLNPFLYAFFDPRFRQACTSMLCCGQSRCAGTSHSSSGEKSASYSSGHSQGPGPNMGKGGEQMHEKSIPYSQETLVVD
- Assay Overview: Intracellular cAMP accumulation assay (APJ hcAMP, HTRF)
- Type: cell-based
- Condition Summary: Table 1; HEK293 cells stably expressing human APJ, forskolin-stimulated cAMP; read-out: APJ cAMP EC50
pEC50: −log10 of the molar value.

Previously resolved entries follow.
CCCCc1nc(O)c(C(=O)N2CCC(c3c[nH]cn3)CC2)c(O)c1-c1c(OC)cccc1OC [Example 55] | 7.00 to 8.00
CCCCc1nc(O)c(C(=O)N2CCC(O)(c3ccccc3)CC2)c(O)c1-c1c(OC)cccc1OC [Example 46] | 7.00 to 8.00
CCCCc1nc(O)c(C(=O)N2CCN(c3ccccc3)CC2)c(O)c1-c1c(OC)cccc1OC [Example 30] | 7.00 to 8.00
CCCCc1nc(O)c(C(=O)N2CCC(c3nc4ccccc4s3)CC2)c(O)c1-c1c(OC)cccc1OC [Example 48] | 7.00 to 8.00
CCCCc1nc(O)c(C(=O)N2CCC(c3ccccc3OC)CC2)c(O)c1-c1c(OC)cccc1OC [Example 19] | 7.00 to 8.00
CCCCc1nc(O)c(C(=O)N2CCN(Cc3cccc(F)c3)CC2)c(O)c1-c1c(OC)cccc1OC [Example 45] | 8.00 to 11.00
CCCCc1nc(O)c(C(=O)N2CCN(C(c3ccccc3)c3ccccc3)CC2)c(O)c1-c1c(OC)cccc1OC [Example 16] | 8.00 to 11.00
CCCCc1nc(O)c(C(=O)N2CCN(c3nnnn3-c3ccccc3)CC2)c(O)c1-c1c(OC)cccc1OC [Example 52] | 8.00 to 11.00
CCCCc1nc(O)c(C(=O)N2CCC(c3nc4ccccc4o3)CC2)c(O)c1-c1c(OC)cccc1OC [Example 32] | 7.00 to 8.00
CCCCc1nc(O)c(C(=O)N2CCC(c3noc4cc(F)ccc34)CC2)c(O)c1-c1c(OC)cccc1OC [Example 65] | 7.00 to 8.00

// query I am curious: what pEC50 value has been reported for CCCCc1nc(O)c(C(=O)N2CCN(c3nccc(C(F)(F)F)n3)CC2)c(O)c1-c1c(OC)cccc1OC [Example 13] ?
// result 7.00 to 8.00

// query What does the data say about its pEC50? Entry: CCCCc1nc(O)c(C(=O)N2CCN(C(=O)c3cccc(F)c3)CC2)c(O)c1-c1c(OC)cccc1OC [Example 42]
// result 8.00 to 11.00

// query State the recorded pEC50 for this entry: CCCCc1nc(O)c(C(=O)N(C)CCCCc2ccccc2)c(O)c1-c1c(OC)cccc1OC [Example 2]
// result 6.52 to 7.00

// query Looking for the measured pEC50 of CCCCc1nc(O)c(C(=O)N(C)CCc2ccccn2)c(O)c1-c1c(OC)cccc1OC [Example 15] , can you help?
// result 8.00 to 11.00
